B1: glmS ribozyme (parent)
chain: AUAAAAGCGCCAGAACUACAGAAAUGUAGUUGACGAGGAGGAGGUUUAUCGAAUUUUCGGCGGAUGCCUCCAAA

Variants of: B1
Method summary: self-cleavage kobs at 640 uM GlcN6P; higher = faster cleavage; RNA array
Assay conditions: with glucosamine-6-phosphate
Variants at the floor of the assay were thinned out.
Each record here notes measured self-cleavage kobs at 640 uM GlcN6P.
Parameter: self-cleavage kobs at 640 uM GlcN6P (s⁻¹)

- Mutant designation: "G41U G51C G62A C68U"
  Comparator: "<"
  Recorded number: "1e-05"
- Mutant designation: "G9U U31A U65G"
  Comparator: "<"
  Recorded number: "1e-05"
- Mutant designation: "G9C G62U"
  Comparator: "<"
  Recorded number: "1e-05"
- Mutant designation: "G7A U55C"
  Comparator: "<"
  Recorded number: "1e-05"
- Mutant designation: "U46G C70U"
  Comparator: "="
  Recorded number: 0.00125
- Mutant designation: "G7U A39C"
  Comparator: "<"
  Recorded number: "1e-05"
- Mutant designation: "A33U C58U"
  Comparator: "<"
  Recorded number: "1e-05"
- Mutant designation: "A15U C34G"
  Comparator: "<"
  Recorded number: "1e-05"
- Mutant designation: "C11A C34G G60U A64G"
  Comparator: "<"
  Recorded number: "1e-05"
- Mutant designation: "C10A A12U C67G"
  Comparator: "="
  Recorded number: "8.71e-05"
- Mutant designation: "G43U A64U"
  Comparator: "<"
  Recorded number: "1e-05"
- Mutant designation: "C10G G40A C70A"
  Comparator: "<"
  Recorded number: "1e-05"
- Mutant designation: "A12G U69A"
  Comparator: "="
  Recorded number: "4.87e-05"
- Mutant designation: "G43A A48U C50A"
  Comparator: "<"
  Recorded number: "1e-05"
- Mutant designation: "U54A G66C"
  Comparator: "="
  Recorded number: 0.000259
- Mutant designation: "C11G A42U G59U"
  Comparator: "<"
  Recorded number: "1e-05"
- Mutant designation: "A6U G44U G51U U54A"
  Comparator: "<"
  Recorded number: "1e-05"
- Mutant designation: "G13U U31A A39C C68U U69A"
  Comparator: "<"
  Recorded number: "1e-05"
- Mutant designation: "U47G C70A"
  Comparator: "="
  Recorded number: "9.99e-05"
- Mutant designation: "A39U G44C"
  Comparator: "="
  Recorded number: "6.01e-05"
- Mutant designation: "A6U G51C U56A U69G C70A"
  Comparator: "="
  Recorded number: 0.000269
- Mutant designation: "G38U C68G"
  Comparator: "="
  Recorded number: 0.000294
- Mutant designation: "U31G G66C"
  Comparator: "="
  Recorded number: "4.89e-05"
- Mutant designation: "C11U A12C C70G"
  Comparator: "="
  Recorded number: 0.000165
- Mutant designation: "A15C G63U"
  Comparator: "<"
  Recorded number: "1e-05"
- Mutant designation: "G43C A52C U54G"
  Comparator: "<"
  Recorded number: "1e-05"
- Mutant designation: "A15G C67U"
  Comparator: "="
  Recorded number: 0.00169
- Mutant designation: "G44A C71A"
  Comparator: "<"
  Recorded number: "1e-05"
- Mutant designation: "A48U U65G"
  Comparator: "="
  Recorded number: "3.11e-05"
- Mutant designation: "U56C U69C C70A"
  Comparator: "<"
  Recorded number: "1e-05"
- Mutant designation: "C11U U30A C34U A36G U69A"
  Comparator: "="
  Recorded number: 0.000685
- Mutant designation: "G9A G13C U57C"
  Comparator: "<"
  Recorded number: "1e-05"
- Mutant designation: "A36U C67G C68G C71U"
  Comparator: "="
  Recorded number: 0.000121
- Mutant designation: "G41A C58A U69A"
  Comparator: "<"
  Recorded number: "1e-05"
- Mutant designation: "A12C U56C"
  Comparator: "="
  Recorded number: 0.000455
- Mutant designation: "G43U C68G"
  Comparator: "="
  Recorded number: 0.00304
- Mutant designation: "U30G"
  Comparator: "="
  Recorded number: 0.00344
- Mutant designation: "G40U A53U"
  Comparator: "="
  Recorded number: 0.000821
- Mutant designation: "A12G C50G C71G"
  Comparator: "="
  Recorded number: 0.000415
- Mutant designation: "A36G C58A G60A"
  Comparator: "<"
  Recorded number: "1e-05"
- Mutant designation: "U31A A42U G59U"
  Comparator: "<"
  Recorded number: "1e-05"
- Mutant designation: "A64U C71U"
  Comparator: "="
  Recorded number: "3.94e-05"
- Mutant designation: "A15G U69G"
  Comparator: "="
  Recorded number: "6.2e-05"
- Mutant designation: "U30C G32A"
  Comparator: "="
  Recorded number: 0.000321
- Mutant designation: "C16U U69A"
  Comparator: "="
  Recorded number: "9.39e-05"
- Mutant designation: "G9C C10U U55A"
  Comparator: "<"
  Recorded number: "1e-05"
- Mutant designation: "U30G A39U"
  Comparator: "="
  Recorded number: 0.000857
- Mutant designation: "A6G G51A G59U G60A"
  Comparator: "<"
  Recorded number: "1e-05"
- Mutant designation: "C16A C67U"
  Comparator: "="
  Recorded number: 0.000122
- Mutant designation: "G38A A52G C68G"
  Comparator: "="
  Recorded number: "7.2e-05"
- Mutant designation: "A12U C34G G40C C50A"
  Comparator: "<"
  Recorded number: "1e-05"
- Mutant designation: "A6C G35A"
  Comparator: "<"
  Recorded number: "1e-05"
- Mutant designation: "A33U C50G G51A"
  Comparator: "<"
  Recorded number: "1e-05"
- Mutant designation: "A6U G59C C71G"
  Comparator: "<"
  Recorded number: "1e-05"
- Mutant designation: "U31G C58G A64U"
  Comparator: "<"
  Recorded number: "1e-05"
- Mutant designation: "A14G C16A G62C"
  Comparator: "<"
  Recorded number: "1e-05"
- Mutant designation: "G38U A53C"
  Comparator: "<"
  Recorded number: "1e-05"
- Mutant designation: "G35U G59C"
  Comparator: "<"
  Recorded number: "1e-05"
- Mutant designation: "G51C G60U"
  Comparator: "<"
  Recorded number: "1e-05"
- Mutant designation: "G26U A48C"
  Comparator: "="
  Recorded number: "7.06e-05"
- Mutant designation: "C10U U65A"
  Comparator: "<"
  Recorded number: "1e-05"
- Mutant designation: "A42G U46C"
  Comparator: "="
  Recorded number: 0.000597
- Mutant designation: "G35A C71G"
  Comparator: "<"
  Recorded number: "1e-05"
- Mutant designation: "A52U C68U"
  Comparator: "="
  Recorded number: "6.72e-05"
- Mutant designation: "G38C G41A"
  Comparator: "<"
  Recorded number: "1e-05"
- Mutant designation: "G7C"
  Comparator: "<"
  Recorded number: "1e-05"
- Mutant designation: "A33C C70A"
  Comparator: "<"
  Recorded number: "1e-05"
- Mutant designation: "G35A U46A"
  Comparator: "<"
  Recorded number: "1e-05"
- Mutant designation: "A52G G62C"
  Comparator: "<"
  Recorded number: "1e-05"
- Mutant designation: "U31A U55G C67U"
  Comparator: "="
  Recorded number: 0.000859
- Mutant designation: "G32C A48G G51U"
  Comparator: "<"
  Recorded number: "1e-05"
- Mutant designation: "U31A G32C"
  Comparator: "="
  Recorded number: "5.55e-05"
- Mutant designation: "A15G U30G"
  Comparator: "="
  Recorded number: 0.00124
- Mutant designation: "A6C C11U A33C A36G U47G G59A"
  Comparator: "<"
  Recorded number: "1e-05"
- Mutant designation: "U45C U47C"
  Comparator: "="
  Recorded number: 0.000179
- Mutant designation: "G32A G44U"
  Comparator: "<"
  Recorded number: "1e-05"
- Mutant designation: "A53G U54G U55G C61A C70U"
  Comparator: "="
  Recorded number: 0.000595
- Mutant designation: "C11G G60U A64U"
  Comparator: "<"
  Recorded number: "1e-05"
- Mutant designation: "G29A G40A"
  Comparator: "="
  Recorded number: 0.000154
- Mutant designation: "C34G U46G U65A"
  Comparator: "<"
  Recorded number: "1e-05"
- Mutant designation: "A14U U30G"
  Comparator: "="
  Recorded number: 0.000998
- Mutant designation: "A36G U45A U49C"
  Comparator: "<"
  Recorded number: "1e-05"
- Mutant designation: "U30C U54G"
  Comparator: "="
  Recorded number: 0.000118
- Mutant designation: "A6G A36U G41A U47A C67G"
  Comparator: "<"
  Recorded number: "1e-05"
- Mutant designation: "C8G G37C"
  Comparator: "<"
  Recorded number: "1e-05"
- Mutant designation: "A15C A53G"
  Comparator: "="
  Recorded number: 0.00139
- Mutant designation: "U30A G35C"
  Comparator: "<"
  Recorded number: "1e-05"
- Mutant designation: "U49G G66A"
  Comparator: "="
  Recorded number: "5.55e-05"
- Mutant designation: "G35C U54G"
  Comparator: "<"
  Recorded number: "1e-05"
- Mutant designation: "U46G U56G C70U"
  Comparator: "="
  Recorded number: 0.000436
- Mutant designation: "A33U U45C C50A"
  Comparator: "<"
  Recorded number: "1e-05"

Data provenance is the supplement of paper PMC7125110.
